assay: Phase 1 metabolic stability, human liver microsomes; assay type: in vitro ADME; details: pH 7.4
measured.parameter: CLint scaled at 1 µM (mL/min/kg)

[a] CCC/C(=C\C1=C(OC)C(=O)c2ccccc2C1=O)C(=O)N(CC)CC
[b] CCC/C(=C\C1=C(O)C(=O)c2ccccc2C1=O)C(=O)N(CC)CC
[c] CCCCCCCCC/C(=C\C1=C(C)C(=O)C(OC)=C(OC)C1=O)C(=O)O [APX3330, reference compound]
## Task Task for the reader: rank each entry by its CLint scaled at 1 µM, from the minimum upward. Submit the labels in the order that the ranking request calls for.
## Result b, a, c

* * *

experiment: Plasma stability, mouse plasma; assay type: in vitro ADME
measured.parameter: half-life at 1 µM (h)

>>> df
                                   compound  measured_value
0  CCC/C(=C\C1=C(O)C(=O)c2ccccc2C1=O)C(=O)N(CC)CC             2.2

[A] CCCCCCCCC/C(=C\C1=C(C)C(=O)C(OC)=C(OC)C1=O)C(=O)O [APX3330, reference compound]
[B] CCC/C(=C\C1=C(OC)C(=O)c2ccccc2C1=O)C(=O)N(CC)CC
## Task Sorting by half-life at 1 µM in descending order, would A or B appear first? Returns: label corresponding to the selected item.
## Result A

* * *

test: Thermodynamic solubility; type: physicochemical; details: FaSSGF, 37 °C, fassgf or other biorelevant, thermodynamic from solid
measured.parameter: solubility thermodynamic at 24 h (µg/mL)

                                   compound  result_units  measured_value
0  CCCCCCCCC/C(=C\C1=C(C)C(=O)C(OC)=C(OC)C1=O)C(=O)O [APX3330, reference compound]         µg/mL               1

[A] CCC/C(=C\C1=C(OC)C(=O)c2ccccc2C1=O)C(=O)N(CC)CC
[B] CCC/C(=C\C1=C(O)C(=O)c2ccccc2C1=O)C(=O)N(CC)CC
## Task Sorting by solubility thermodynamic at 24 h in descending order, would A or B appear first? Returns: label corresponding to the selected item.
## Result B

* * *

assay: Thermodynamic solubility; type: physicochemical; conditions: FeSSIF, 37 °C, thermodynamic from solid
measured.parameter: solubility thermodynamic at 24 h (µg/mL)

                                   compound                measured_parameter  measured_value
0  CCC/C(=C\C1=C(OC)C(=O)c2ccccc2C1=O)C(=O)N(CC)CC [APX2009]  solubility thermodynamic at 24 h             558

[a] CCCCCCCCC/C(=C\C1=C(C)C(=O)C(OC)=C(OC)C1=O)C(=O)O [APX3330, reference compound]
[b] CCC/C(=C\C1=C(O)C(=O)c2ccccc2C1=O)C(=O)N(CC)CC [APX2053]
## Task Sorting by solubility thermodynamic at 24 h in descending order, would a or b appear first? Returns: label corresponding to the selected item.
## Result b
(b: 1200 µg/mL, a: 448 µg/mL)

* * *

assay: Thermodynamic solubility; format: physicochemical; conditions: phosphate buffer, pH 6.8, aqueous buffer, thermodynamic from solid
measured.parameter: solubility thermodynamic (µg/mL)

[P] CCCCCCCCC/C(=C\C1=C(C)C(=O)C(OC)=C(OC)C1=O)C(=O)O [APX3330, reference compound]
[Q] CCC/C(=C\C1=C(OC)C(=O)c2ccccc2C1=O)C(=O)N(CC)CC [APX2009]
## Task // select label with min value of measured solubility thermodynamic from [ P , Q ] Returns: label corresponding to the selected item.
## Result Q
(Q: 94 µg/mL, P: 496 µg/mL)

* * *

test system: NFκB; assay: NFκB-driven luciferase reporter assay, NF90-8 cells; assay type: cell-based; conditions: Homo sapiens, 24 h, read-out: NFκB Luciferase 24 hr EC50±SE (μM)
measured.parameter: EC50 (µM)

[P] CCCCCCCCC/C(=C\C1=C(C)C(=O)C(OC)=C(OC)C1=O)C(=O)O [APX3330, reference compound]
[Q] CCC/C(=C\C1=C(OC)C(=O)c2ccccc2C1=O)C(=O)N(CC)CC
## Task // select label with min value of measured EC50 from [ P , Q ] Returns: label corresponding to the selected item.
## Result Q

* * *

biological target: Ref-1 (Homo sapiens, UniProt P27695)
Sequence (P27695 whole entry): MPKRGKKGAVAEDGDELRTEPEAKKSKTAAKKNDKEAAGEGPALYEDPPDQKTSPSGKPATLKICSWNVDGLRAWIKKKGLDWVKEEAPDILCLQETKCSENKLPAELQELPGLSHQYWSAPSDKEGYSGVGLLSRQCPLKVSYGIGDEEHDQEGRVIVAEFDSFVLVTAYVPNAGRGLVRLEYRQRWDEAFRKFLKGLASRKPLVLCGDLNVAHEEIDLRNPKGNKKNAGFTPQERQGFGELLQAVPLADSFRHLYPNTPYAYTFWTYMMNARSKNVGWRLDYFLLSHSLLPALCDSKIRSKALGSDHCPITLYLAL
measured.parameter: IC50

## Task // lookup IC50 for CCC/C(=C\C1=C(OC)C(=O)c2ccccc2C1=O)C(=O)N(CC)CC [APX2009]
## Result < 1000 nM

* * *

system: NFκB; test: NFκB luciferase reporter assay; assay type: cell-based, human; details: Homo sapiens, Pa03C, read-out: NFκB (IC50 mM)
measured.parameter: IC50 (mM)

[A] CCC/C(=C\C1=C(OC)C(=O)c2ccccc2C1=O)C(=O)N(CC)CC [APX2009]
[B] CCCCCCCCC/C(=C\C1=C(C)C(=O)C(OC)=C(OC)C1=O)C(=O)O [APX3330, reference compound]
## Task Sorting by IC50 in descending order, would A or B appear first? Returns: label corresponding to the selected item.
## Result B

* * *

experiment: CaCO2 bidirectional permeability; format: in vitro ADME; conditions: human, Caco-2
measured.parameter: efflux ratio

                                   compound  measured_value
0  CCC/C(=C\C1=C(O)C(=O)c2ccccc2C1=O)C(=O)N(CC)CC [APX2053]               1
1  CCC/C(=C\C1=C(OC)C(=O)c2ccccc2C1=O)C(=O)N(CC)CC [APX2009]            0.75
